biological target: MAGI2_3, Q86UL8; assay: holdup assay; set-up: key: below the threshold = too weak to quantify, mostly under pKd 3.1 to 4; settings: plain residues with an end cap or a label only (N-terminal biotin on a linker: ahx)
Sequence (Q86UL8 600-682): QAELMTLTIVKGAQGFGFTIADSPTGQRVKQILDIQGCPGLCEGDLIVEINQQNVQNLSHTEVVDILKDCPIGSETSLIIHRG
quantityName: pKd

Known pKd results, listed for orientation:
> print(dat)
                         binder       observedresult
1    AKPQPVDSWV [ARVCF, O00192]  below the threshold
2     KDECVIATEV [DLL1, O00548]  below the threshold
3  ADENEQVSAV [RAPGEF6, Q8TEU7]                 4.15
4   YNSFLSVTTV [PDZRN3, Q9UPQ7]                 3.56
5  VNENQKEYFF [CNTNAP4, Q9C0A0]  below the threshold

What value of pKd has been reported for the following binder? PKMKLNETSF [SHKBP1, Q8TBC3]
below the threshold
